Documented TGI across a set of compounds
system: 786-0 renal; experiment: NCI tumour cell line growth inhibition, 48 h
attribute-measured: TGI (µM)

compound	tested-on	unit-string	censoring-qualifier	readout-number
COc1cc([C@@H]2c3cc4c(cc3[C@H](OC3OC5COC(c6ccccc6)OC5C(O)C3O)[C@H]3COC(=O)[C@H]23)OCO4)cc(OC)c1OC (some centres not stated)	786-0 renal	µM	=	19.6
CC/C(Cl)=N\OC(=O)Nc1ccc(OC)cc1	786-0 renal	µM	=	3.24
CC(=O)NNc1nc(C)c(C(/C=C/c2ccc(/C=C/C(=N\NC(=O)c3ccncc3)c3sc(NNC(C)=O)nc3C)cc2)=N/NC(=O)c2ccncc2)s1	786-0 renal	µM	>	100
Cc1cc2c(cc1-c1cc3c(cc1C)C(C(C)C)=C(O)C(=O)/C3=C\Nc1nc(-c3ccccc3)cs1)/C(=C/Nc1nc(-c3ccccc3)cs1)C(=O)C(O)=C2C(C)C	786-0 renal	µM	>	100
C1=C[C@@H]2c3ccc4cnccc4c3NC[C@@H]2C1	786-0 renal	µM	>	100
CCNC(=S)N/N=C/c1cc(OC)ccc1O	786-0 renal	µM	>	100
CC(C)(C)c1cc(C(O)(C(=O)O)C(=O)O)cc(C(C)(C)C)c1O	786-0 renal	µM	>	100
COc1ccc(CN(O)C2C(CO)OC(n3cc(I)c(=O)[nH]c3=O)C2O)cc1 (configuration not stated)	786-0 renal	µM	>	100
Cc1cc(Cl)n2c(nc3ccccc32)c1C#N	786-0 renal	µM	=	6.48
CSC1=Nc2ccccc2-c2nc(-c3ccccc3)cc(-c3ccccc3)c2C1	786-0 renal	µM	=	26
COc1ccc(CCNc2nc3ccccc3c3[nH]c4ccccc4c23)cc1OC	786-0 renal	µM	=	3.28
CC(=O)NC1(C)CCC(C(C)(C)NC(C)=O)CC1 (configuration not stated)	786-0 renal	µM	>	100

---

system: NCI-H522 lung; test: NCI tumour cell line growth inhibition, 48 h
attribute-measured: TGI

In [3]: df
Out[3]:
                                    molecule    result
 0        CCOC(=O)c1ccc(-c2cc(C)[nH]n2)[nH]1  > 100 µM
 1  CSc1nc2ccccc2c(=O)n1/N=C1\C(=O)N(CN2CCOCC2)c2ccc(Cl)cc21   89.8 µM
 2  CCOP1(=O)OCC2OC(n3cnc4c(N)ncnc43)C(O)C2O1 (stereo unspecified)  > 100 µM
 3  CCCC(Sc1nc(N)nc2nc[nH]c12)C(=O)O (stereo unspecified)  > 100 µM
 4       CCCCN(CCCC)C(=Nc1ccccc1)N(CCCC)CCCC   7.41 µM
 5              O=c1c2ccccc2oc2c1ccc1ncccc12   59.1 µM
 6                       NC(=O)C/C=C/CC(N)=O  > 100 µM
 7    CCCCNC(=S)Nn1c(-c2ccccc2)nc2ccccc2c1=O  > 100 µM
 8  O=C(O)Cc1ccc(Oc2nc3ccccc3nc2-c2cccs2)cc1  > 100 µM
 9  CN(NC(=O)/C(=C/c1ccc(O)cc1)NC(=O)c1ccccc1)c1ccnc2cc(Cl)ccc12   60.7 µM
10         CO/C(=N\N=C\c1ccc(Cl)cc1)c1ccncc1  > 100 µM
11  CC(C)c1ccc2c(c1)CCC1C(C)(C)[C@@H](O)CC[C@]21C (stereo partly specified)     79 µM
12  CCCCC1(N=[N+]=[N-])C(=O)c2cccc3c2N(CCC3)C1=O (stereo unspecified)  > 100 µM
13  CC1(C)C2CCC1(CS(=O)(=O)Nc1ccccc1)C(=O)C2 (stereo unspecified)  > 100 µM
14  Cc1nc2c(cnn2-c2ccnc3c(C(F)(F)F)cccc23)c(=O)o1  > 100 µM
15  Cc1cccc2c1C(=O)C1(Cc3ccccc3C1=O)C2 (stereo unspecified)  > 100 µM

---

Documented TGI across a set of molecules
system: SW-620 colon; test: NCI tumour cell line growth inhibition, 48 h
attribute-measured: TGI

In [3]: df
Out[3]:
                                   molecule     tested_on  attribute_measured    result
0  COc1ccc(NC(=O)c2ccc(NC3=C(Cl)C(=O)N(Cc4ccccc4)C3=O)cc2)cc1  SW-620 colon                 TGI  > 100 µM
1       COc1ccc(-c2oc3ccc(C)cc3c(=O)c2O)cc1  SW-620 colon                 TGI  > 100 µM
2  COc1cc2c(cc1OC)C1CN3C(=O)CCC3C(O)C1c1cc(OC)c(OC)cc1-2 (stereo unspecified)  SW-620 colon                 TGI  > 100 µM
3  COc1ccc(C(=O)O/N=C2\CCCC\C2=C/c2ccccc2)cc1  SW-620 colon                 TGI  > 100 µM
4  Cc1cc2c(-c3nc4ccccc4[nH]3)c(O)c(O)cc2c(O)c1-c1c(C)cc2c(-c3nc4ccccc4[nH]3)c(O)c(O)cc2c1O  SW-620 colon                 TGI   > 22 µM
5  CCN(CC)CCn1c(=N)n(CC(O)c2ccc(Cl)c(Cl)c2)c2ccccc21 (stereo unspecified)  SW-620 colon                 TGI   24.8 µM

---

tested on: HOP-62 NSCLC; assay: NCI tumour cell line growth inhibition, 48 h

compound	TGI
CCNc1nc(N)c(C(=O)c2ccc(Cl)cc2)s1	> 100 µM
CC(C)OC(=O)c1ccc(NCC2=CC(=O)C=CC2=O)cc1Cl	> 100 µM
CN1CCC(O)C(CNC23CC4CC(CC(C4)C2)C3)C1 (stereo not given)	> 100 µM
CCSc1ncnc2c(C3OC(CO)C(O)C3O)nsc12 (stereo not given)	> 100 µM
Cc1ccccc1N=C(N)NC#N	> 100 µM
CCN1CCN(C(=O)[C@]23CC[C@@H](C)[C@H](C)[C@@H]2C2=CC[C@@H]4[C@@]5(C)C/C(=C/c6cccnc6)C(=O)C(C)(C)[C@@H]5CC[C@@]4(C)[C@]2(C)CC3)CC1	5.86 µM
C=C1C(=O)OC(CCCCCCCC)C1C(=O)O (stereo not given)	39.1 µM
O=c1[nH]nc(-c2ccccc2)c(-c2ccccc2)c1-n1nc(-c2ccccc2)c2ccccc2c1=O	> 100 µM
CCOC(=O)c1cc2c(n1Cc1cccc(OC)c1)-c1oncc1CC2	> 100 µM
Nc1ccc2c(c1)C1Oc3ccccc3CC1CO2 (stereo not given)	> 100 µM
